test system: HCT-15 colon; assay: NCI tumour cell line growth inhibition, 48 h
Quantity Measured: TGI

{"Molecule": "COC(=O)c1cc(-c2c[nH]cc2C(=O)OCc2ccccc2)cn1S(=O)(=O)c1ccc(C)cc1", "TGI": "> 100 µM"}
{"Molecule": "N#Cc1c2c([nH]c(=O)c1C#N)CCCC2", "TGI": "> 100 µM"}
{"Molecule": "C=C(C)[C@@H]1CC[C@@]2(C)[C@H]1[C@H]1CCC3[C@@]4(C)CC[C@H](O)C(C)(C)[C@@H]4CC[C@@]3(C)[C@]1(C)C[C@@H]2O (stereo not given in full)", "TGI": "> 100 µM"}
{"Molecule": "CC(C)=CCC/C(C)=C/Cc1c(O)ccc2c1[nH]c1cc(O)c(C)cc12", "TGI": "> 25 µM"}

Now consider a different molecule.
Here COc1ccc(COCC(Cn2ccnc2)OCc2ccc(C(=O)O)cc2)cc1 (stereo not given) was tested on HCT-15 colon, and its TGI came to > 100 µM
